These entries and their values trace back to PubChem BioAssay AID488922.

- TARGET SYSTEM: Potassium channel subfamily K member 9 (Homo sapiens) (UniProt Q9NPC2)
- Sequence (Q9NPC2 whole entry, looked up): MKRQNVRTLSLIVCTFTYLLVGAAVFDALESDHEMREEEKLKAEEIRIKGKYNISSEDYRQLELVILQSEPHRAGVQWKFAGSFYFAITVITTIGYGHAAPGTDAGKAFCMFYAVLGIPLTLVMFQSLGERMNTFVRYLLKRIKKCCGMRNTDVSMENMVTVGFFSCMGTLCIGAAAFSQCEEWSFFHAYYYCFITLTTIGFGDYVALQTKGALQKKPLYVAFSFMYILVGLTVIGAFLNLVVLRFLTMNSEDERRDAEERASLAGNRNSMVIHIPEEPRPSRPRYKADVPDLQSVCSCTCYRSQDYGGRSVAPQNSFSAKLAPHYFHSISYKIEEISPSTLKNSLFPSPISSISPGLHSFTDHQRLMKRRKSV
- MEASUREMENT PROTOCOL: blockers of human TASK-3 (KCNK9) channel – HEK293 cells, thallium flux, primary screen (AID 488922)
- SETUP CONDITIONS: HEK293 KCNK9, FluxOR thallium flux fluorescence, at 10 µM
Out of some 310,000 compounds screened, about 3,800 (1.2%) were called active.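 How the source made its calls: active means ratio B-score over 3 SD below the library mean, with starting fluorescence within 5 SD of its mean; inactive means the rest, inconclusive results apart.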 For the sample, actives were picked, then their nearest neighbours and some compounds at random.
Respond with a class label; see active, inactive

Qu. What did the test return for Cc1nc(N2CCN(c3ccccn3)CC2)c2c(C)c(C(=O)Nc3ccc(F)cc3)sc2n1 ?
Ans. inactive

Qu. How about CN(C(=O)CSc1nc(C2CC2)nc2ccccc12)c1nc(-c2ccccc2)cs1 ?
Ans. inactive

Qu. How about COCCCNC(=S)N1CCN(c2nc(-c3cccc(OC)c3)cs2)CC1 ?
Ans. inactive

Qu. How about CCOC(=O)CSC1=C(C#N)C(c2ccco2)C(C(=O)OCc2ccccc2)=C(C)N1 (stereo unspecified) ?
Ans. active

Qu. How about c1ccc(C2=Nc3cccc4cccc(c34)N2)cc1 ?
Ans. inactive

Qu. How about C=C1CCN([C@H](C(=O)NCc2cc(OC)c(OC)c(OC)c2)C(C)C)S(=O)(=O)c2ccccc21 ?
Ans. inactive

Qu. How about CC1CCC(NC(=O)CNC(=O)c2ccc3ccccc3c2)CC1 (stereo unspecified) ?
Ans. inactive

Qu. How about Cc1ccc2c(c1)N(CC(=O)N(Cc1ccccn1)Cc1ccco1)C(=O)C(C(C)C)O2 (stereo unspecified) ?
Ans. inactive

Qu. How about COCCNC(=S)N(Cc1cccnc1)Cc1ccc(OC)c(OC)c1 ?
Ans. inactive

Qu. How about CCc1ccc(-c2cc(C(=O)NN3CCN(C)CC3)c3ccccc3n2)cc1 ?
Ans. inactive

Qu. How about Cc1ccc(C2CC(=O)NC(SCC(=O)OCc3ccccc3)=C2C#N)o1 (stereo unspecified) ?
Ans. inactive

Qu. How about CN(Cc1c(F)cccc1Cl)C(=O)CNC(=O)c1ccc2c(c1)OCO2 ?
Ans. inactive

Qu. How about O=c1cc(Cl)c2ccccc2n1-c1ccccc1 ?
Ans. inactive

Qu. How about CC(C)(C)n1nnnc1C(c1ccc(F)cc1)N1CCN(Cc2ccc3c(c2)OCO3)CC1 (stereo unspecified) ?
Ans. inactive

Qu. How about Cc1cccc(N2CCN(C(c3ccccc3)c3nnnn3CC3CCCO3)CC2)c1C (stereo unspecified) ?
Ans. inactive

Qu. How about Brc1ccc(C2CC(c3ccccc3)=Nc3ccccc3N2)cc1 (stereo unspecified) ?
Ans. active

Qu. How about O=C(NCCCO)c1cc2c([nH]c3ccccc32)c(-c2ccc(F)cc2)n1 ?
Ans. inactive

Qu. How about CCOC(=O)[C@H]1[C@H]2COc3cc(OC)ccc3[C@@H]2N2C(=O)N(c3ccc(Br)cc3)C(=O)[C@@]12C ?
Ans. inactive

Qu. How about Cc1cccc(C)c1NC(=S)N(Cc1cccnc1)Cc1ccccc1Cl ?
Ans. inactive

Qu. How about Cc1ccc(CN(Cc2cccnc2)C(=S)Nc2cccc(Cl)c2C)cc1 ?
Ans. active

Qu. How about Cc1nc(N2CCN(c3ccccn3)CC2)c2c(C)c(C(=O)Nc3ccc(F)c(Cl)c3)sc2n1 ?
Ans. active
